# assay system: ACE (Rattus norvegicus, UniProt P47820)
# Construct: After the removal of the lungs from SHR, the lung tissue was homogenized; from tissue; host or cells: lung homogenate of spontaneously hypertensive rats (SHR)
# Sequence (P47820 36-1313): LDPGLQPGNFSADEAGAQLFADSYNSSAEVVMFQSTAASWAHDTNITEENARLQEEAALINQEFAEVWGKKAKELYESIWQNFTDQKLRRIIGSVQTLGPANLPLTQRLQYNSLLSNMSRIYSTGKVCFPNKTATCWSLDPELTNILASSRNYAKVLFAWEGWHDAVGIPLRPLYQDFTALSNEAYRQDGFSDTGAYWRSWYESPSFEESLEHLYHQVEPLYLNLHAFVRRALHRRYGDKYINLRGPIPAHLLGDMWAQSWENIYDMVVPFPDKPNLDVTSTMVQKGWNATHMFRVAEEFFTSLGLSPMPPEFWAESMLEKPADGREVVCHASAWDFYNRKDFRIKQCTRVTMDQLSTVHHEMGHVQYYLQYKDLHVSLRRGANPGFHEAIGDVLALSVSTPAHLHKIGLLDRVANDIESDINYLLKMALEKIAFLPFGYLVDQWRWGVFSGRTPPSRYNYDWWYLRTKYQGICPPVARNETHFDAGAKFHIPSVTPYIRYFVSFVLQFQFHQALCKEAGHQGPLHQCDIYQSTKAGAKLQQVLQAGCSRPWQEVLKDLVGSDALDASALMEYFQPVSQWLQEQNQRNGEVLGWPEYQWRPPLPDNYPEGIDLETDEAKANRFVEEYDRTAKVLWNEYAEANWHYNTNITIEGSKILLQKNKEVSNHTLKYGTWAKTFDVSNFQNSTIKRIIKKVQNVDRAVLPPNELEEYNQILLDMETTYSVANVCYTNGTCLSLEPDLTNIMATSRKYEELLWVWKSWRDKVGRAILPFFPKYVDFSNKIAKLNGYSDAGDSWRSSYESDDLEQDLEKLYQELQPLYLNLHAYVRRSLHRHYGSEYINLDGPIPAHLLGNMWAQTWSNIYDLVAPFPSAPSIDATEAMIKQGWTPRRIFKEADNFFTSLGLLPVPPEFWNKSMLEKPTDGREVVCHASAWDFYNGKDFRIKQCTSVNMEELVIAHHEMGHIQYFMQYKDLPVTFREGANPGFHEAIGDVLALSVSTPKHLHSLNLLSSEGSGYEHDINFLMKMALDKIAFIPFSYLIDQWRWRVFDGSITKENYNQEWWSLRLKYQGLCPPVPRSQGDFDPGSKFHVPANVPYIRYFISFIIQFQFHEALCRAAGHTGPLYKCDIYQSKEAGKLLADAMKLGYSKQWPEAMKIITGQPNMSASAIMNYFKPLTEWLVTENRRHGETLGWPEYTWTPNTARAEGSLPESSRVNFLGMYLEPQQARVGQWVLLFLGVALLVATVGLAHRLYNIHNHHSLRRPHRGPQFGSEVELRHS
# assay name: Ex vivo ACE-inhibitory activity in lung homogenates of treated SHR (radiometric, [3H]Hyp-Gly-Gly)
# Design: species or system spontaneously hypertensive rats (SHR)
# particulars: SHR lungs, oral 30 µmoles/kg, 4 hours after administration, read-out: ACE-inhibition (lungs) 4 hours
Form field: inhibition at 30 µmol/kg (one value per entry).
assay endpoint: inhibition at 30 µmol/kg (%)

{"molecule": "O=C(N[C@@H](Cc1ccccc1)C(=O)O)C(CS)Cc1ccc2c(c1)OCO2 (some centres unmarked) [Compound R-1]", "assay result": 20}
{"molecule": "CC(CS)C(=O)N[C@@H](Cc1ccc(O)cc1)C(=O)O (some centres unmarked) [Compound R-3]", "assay result": 20}
{"molecule": "O=C(N[C@@H](Cc1ccc(-c2nccs2)cc1)C(=O)O)[C@@H](CS)Cc1ccccc1 [Compound 16]", "assay result": 45}
{"molecule": "CC(CS)C(=O)N[C@@H](Cc1c[nH]c2ccccc12)C(=O)O (some centres unmarked) [Compound R-4]", "assay result": 10}
{"molecule": "O=C(N[C@@H](Cc1ccc(O)cc1)C(=O)O)C(CS)Cc1ccc2c(c1)OCO2 (some centres unmarked) [Compound R-2]", "assay result": 25}

----------
Recorded measurements of inhibition at 30 µmol/kg, one per entry
# assay system: ACE (Rattus norvegicus)
# Construct: After the removal of the lungs from SHR, the lung tissue was homogenized; from tissue; host or cells: lung homogenate of spontaneously hypertensive rats (SHR)
# assay name: Ex vivo ACE-inhibitory activity in lung homogenates of treated SHR (radiometric, [3H]Hyp-Gly-Gly)
# Parameters: species or system spontaneously hypertensive rats (SHR)
# particulars: SHR lungs, oral 30 µmoles/kg, 30 minutes after administration, read-out: ACE-inhibition (lungs) 30 minutes

{"compound": "CC(CS)C(=O)N[C@@H](Cc1ccc(O)cc1)C(=O)O (some centres unmarked) [Compound R-3]", "inhibition at 30 µmol/kg, %": 25}
{"compound": "O=C(N[C@@H](Cc1ccccc1)C(=O)O)C(CS)Cc1ccc2c(c1)OCO2 (some centres unmarked) [Compound R-1]", "inhibition at 30 µmol/kg, %": 25}
{"compound": "O=C(N[C@@H](Cc1ccc(O)cc1)C(=O)O)C(CS)Cc1ccc2c(c1)OCO2 (some centres unmarked) [Compound R-2]", "inhibition at 30 µmol/kg, %": 30}
{"compound": "O=C(N[C@@H](Cc1ccc(-c2nccs2)cc1)C(=O)O)[C@@H](CS)Cc1ccccc1 [Compound 16]", "inhibition at 30 µmol/kg, %": 60}
{"compound": "CC(CS)C(=O)N[C@@H](Cc1c[nH]c2ccccc12)C(=O)O (some centres unmarked) [Compound R-4]", "inhibition at 30 µmol/kg, %": 25}

----------
# assay system: NEP (Rattus norvegicus, UniProt P07861)
# assay name: Ex vivo NEP-inhibitory activity in kidney homogenates of treated SHR (GAAP substrate)
# Set-up: After the removal of the kidneys from SHR, the renal tissue was homogenized; from tissue; host or cells: kidney homogenate of spontaneously hypertensive rats (SHR); species or system spontaneously hypertensive rats (SHR)
# particulars: rat; SHR kidneys, oral 30 µmoles/kg, 30 minutes after administration; read-out: NEP-inhibition (kidneys) 30 minutes
assay endpoint: inhibition at 30 µmol/kg

{"compound": "O=C(N[C@@H](Cc1ccccc1)C(=O)O)C(CS)Cc1ccc2c(c1)OCO2 (stereo partly shown)", "assay result": "5%"}
{"compound": "O=C(N[C@@H](Cc1ccc(O)cc1)C(=O)O)C(CS)Cc1ccc2c(c1)OCO2 (stereo partly shown)", "assay result": "30%"}
{"compound": "CC(CS)C(=O)N[C@@H](Cc1ccc(O)cc1)C(=O)O (stereo partly shown)", "assay result": "10%"}
{"compound": "O=C(N[C@@H](Cc1ccc(-c2nccs2)cc1)C(=O)O)[C@@H](CS)Cc1ccccc1", "assay result": "55%"}

----------
# assay system: NEP (Rattus norvegicus)
# Sequence (P07861 1-750): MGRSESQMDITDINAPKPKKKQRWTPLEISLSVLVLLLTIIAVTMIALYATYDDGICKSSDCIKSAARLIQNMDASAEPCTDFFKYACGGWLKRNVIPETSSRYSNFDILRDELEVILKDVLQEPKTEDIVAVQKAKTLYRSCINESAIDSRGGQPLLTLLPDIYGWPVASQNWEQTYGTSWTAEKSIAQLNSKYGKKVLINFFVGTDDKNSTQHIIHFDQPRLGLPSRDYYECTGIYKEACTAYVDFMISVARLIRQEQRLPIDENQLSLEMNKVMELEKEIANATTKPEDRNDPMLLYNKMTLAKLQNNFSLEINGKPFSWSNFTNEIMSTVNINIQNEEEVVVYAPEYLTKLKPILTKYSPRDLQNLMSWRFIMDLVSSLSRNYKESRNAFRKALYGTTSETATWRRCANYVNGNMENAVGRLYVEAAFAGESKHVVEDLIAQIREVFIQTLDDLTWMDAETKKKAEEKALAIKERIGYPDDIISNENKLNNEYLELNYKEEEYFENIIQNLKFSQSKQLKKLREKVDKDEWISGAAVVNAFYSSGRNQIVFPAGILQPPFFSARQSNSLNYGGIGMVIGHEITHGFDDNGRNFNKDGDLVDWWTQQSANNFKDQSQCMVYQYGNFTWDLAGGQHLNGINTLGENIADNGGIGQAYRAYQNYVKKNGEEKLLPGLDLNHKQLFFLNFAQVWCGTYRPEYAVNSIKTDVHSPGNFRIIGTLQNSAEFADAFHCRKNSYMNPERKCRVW
assay endpoint: IC50 (nM)

{"compound": "O=C(N[C@@H](Cc1ccc(-c2ccco2)cc1)C(=O)O)[C@@H](CS)Cc1ccccc1", "assay system": "NEP (Rattus norvegicus)", "assay endpoint": "IC50", "assay result": 1.8}
{"compound": "COc1cccc(CC(CS)C(=O)N[C@@H](Cc2ccc(-c3nccs3)cc2)C(=O)O)c1 (stereo partly shown)", "assay system": "NEP (Rattus norvegicus)", "assay endpoint": "IC50", "assay result": 9}
{"compound": "O=C(N[C@@H](Cc1ccc(-c2cccnc2)cc1)C(=O)O)[C@@H](CS)Cc1ccccc1", "assay system": "NEP (Rattus norvegicus)", "assay endpoint": "IC50", "assay result": 2.6}
{"compound": "O=C(N[C@@H](Cc1ccc(-c2nccs2)cc1)C(=O)O)C(CS)Cc1cccs1 (stereo partly shown)", "assay system": "NEP (Rattus norvegicus)", "assay endpoint": "IC50", "assay result": 1.2}
{"compound": "Cc1cc(CC(CS)C(=O)N[C@@H](Cc2ccc(-c3nccs3)cc2)C(=O)O)on1 (stereo partly shown)", "assay system": "NEP (Rattus norvegicus)", "assay endpoint": "IC50", "assay result": 4.5}
{"compound": "O=C(N[C@@H](Cc1ccc(-c2nccs2)cc1)C(=O)O)[C@@H](CS)Cc1ccccc1", "assay system": "NEP (Rattus norvegicus)", "assay endpoint": "IC50", "assay result": 1.8}
{"compound": "O=C(N[C@@H](Cc1ccc(-c2ccoc2)cc1)C(=O)O)[C@@H](CS)Cc1ccccc1", "assay system": "NEP (Rattus norvegicus)", "assay endpoint": "IC50", "assay result": 1}

----------
# assay system: ACE (Oryctolagus cuniculus)
# Sequence (P12822 34-1310): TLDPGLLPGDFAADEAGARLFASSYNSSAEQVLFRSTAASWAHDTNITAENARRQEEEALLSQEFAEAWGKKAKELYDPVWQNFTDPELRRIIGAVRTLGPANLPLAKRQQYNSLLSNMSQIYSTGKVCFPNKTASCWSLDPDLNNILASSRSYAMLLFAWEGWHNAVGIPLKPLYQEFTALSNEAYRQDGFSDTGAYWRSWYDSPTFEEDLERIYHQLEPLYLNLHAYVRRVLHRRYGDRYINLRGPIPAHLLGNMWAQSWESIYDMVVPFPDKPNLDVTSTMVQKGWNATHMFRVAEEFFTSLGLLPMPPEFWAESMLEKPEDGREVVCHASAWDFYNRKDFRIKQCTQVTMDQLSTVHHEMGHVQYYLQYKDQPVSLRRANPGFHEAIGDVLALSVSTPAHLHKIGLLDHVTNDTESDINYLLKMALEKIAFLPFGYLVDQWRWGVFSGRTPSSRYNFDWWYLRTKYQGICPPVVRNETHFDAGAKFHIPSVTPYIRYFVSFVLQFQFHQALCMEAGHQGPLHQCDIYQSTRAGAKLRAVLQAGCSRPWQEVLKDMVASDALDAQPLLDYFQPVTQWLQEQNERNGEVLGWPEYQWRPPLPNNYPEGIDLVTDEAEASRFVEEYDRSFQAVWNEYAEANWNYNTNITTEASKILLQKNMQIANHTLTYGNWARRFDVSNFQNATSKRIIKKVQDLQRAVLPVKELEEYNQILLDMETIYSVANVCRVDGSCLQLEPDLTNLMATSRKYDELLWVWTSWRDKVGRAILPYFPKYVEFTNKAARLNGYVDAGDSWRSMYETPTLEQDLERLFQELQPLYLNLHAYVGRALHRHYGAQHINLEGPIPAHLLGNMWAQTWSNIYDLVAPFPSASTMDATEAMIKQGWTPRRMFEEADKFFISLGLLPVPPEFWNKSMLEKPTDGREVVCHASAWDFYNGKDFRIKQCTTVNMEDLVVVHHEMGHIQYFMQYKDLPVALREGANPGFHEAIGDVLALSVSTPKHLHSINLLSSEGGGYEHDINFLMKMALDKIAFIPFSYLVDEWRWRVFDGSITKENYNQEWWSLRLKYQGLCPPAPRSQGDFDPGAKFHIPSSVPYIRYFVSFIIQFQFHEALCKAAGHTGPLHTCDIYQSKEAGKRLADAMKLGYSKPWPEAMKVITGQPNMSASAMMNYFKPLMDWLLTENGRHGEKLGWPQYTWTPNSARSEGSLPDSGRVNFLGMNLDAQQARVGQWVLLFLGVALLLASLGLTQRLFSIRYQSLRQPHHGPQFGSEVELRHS
hey, just use true if measured IC50 is less than 2 nM, otherwise false

{"molecule": "COc1cccc(CC(CS)C(=O)N[C@@H](Cc2ccc(-c3nccs3)cc2)C(=O)O)c1 (stereo partly shown)", "assay system": "ACE (Oryctolagus cuniculus)", "class assignment": "false"}
{"molecule": "O=C(N[C@@H](Cc1ccc(-c2nccs2)cc1)C(=O)O)C(CS)Cc1cccnc1 (single isomer, unassigned)", "assay system": "ACE (Oryctolagus cuniculus)", "class assignment": "false"}
{"molecule": "O=C(N[C@@H](Cc1ccc(-c2cnccn2)cc1)C(=O)O)[C@@H](CS)Cc1ccccc1", "assay system": "ACE (Oryctolagus cuniculus)", "class assignment": "true"}
{"molecule": "O=C(N[C@@H](Cc1ccc(-c2ccsc2)cc1)C(=O)O)[C@@H](CS)Cc1ccccc1", "assay system": "ACE (Oryctolagus cuniculus)", "class assignment": "false"}
{"molecule": "O=C(N[C@@H](Cc1ccc(-c2nccs2)cc1)C(=O)O)C(CS)Cc1cccs1 (stereo partly shown)", "assay system": "ACE (Oryctolagus cuniculus)", "class assignment": "false"}
{"molecule": "O=C(N[C@@H](Cc1ccc(-c2cccnc2)cc1)C(=O)O)[C@@H](CS)Cc1ccccc1", "assay system": "ACE (Oryctolagus cuniculus)", "class assignment": "true"}
{"molecule": "O=C(N[C@@H](Cc1ccc(-c2cccs2)cc1)C(=O)O)[C@@H](CS)Cc1ccccc1", "assay system": "ACE (Oryctolagus cuniculus)", "class assignment": "true"}
